So I've got a bunch of compounds here, and I need their CC50 values.
Tested on: BHK-pD2hRucPac cells
Test: Cell viability (CellTiter-Glo) in replicon assay
Details: read-out: Replicon Assay_CC50_M; Table 2-1
Numbers only here, please. The scale is µM.

Input line: Entry COc1c(I)cc(I)cc1/C=C1\SC(=S)N(CC(=O)O)C1=O : reported CC50 = ?
Output line: 276

Input line: // same read-out, input: CCN(CC)c1ccc(N2C(=O)/C(=C/c3ccc(C(=O)O)cc3)SC2=S)cc1
Output line: 15

Input line: // same read-out, input: COc1cc(C=C2SC(=S)NC2=O)ccc1OS(=O)(=O)c1ccccc1[N+](=O)[O-]
Output line: 27

Input line: // same read-out, input: O=C(O)CCN1C(=O)/C(=C/c2ccc(-c3cccc(Cl)c3)o2)SC1=S
Output line: 51

Input line: // same read-out, input: COc1ccc(OC)c(/C=C2\SC(=S)N(CC(=O)O)C2=O)c1
Output line: 100

Input line: // same read-out, input: CC(C)(C)c1ccc(/C=C2\SC(=S)N(CCC(=O)O)C2=O)cc1 [BG184]
Output line: 61

Input line: // same read-out, input: O=C(CN1C(=O)C(=Cc2ccccc2Cl)SC1=S)Nc1cccc(C(=O)O)c1
Output line: 103

Input line: // same read-out, input: O=C(CCN1C(=O)C(=Cc2ccc(Cl)cc2)SC1=S)Nc1ccc(C(=O)O)cc1
Output line: 58

Input line: // same read-out, input: COc1cc(/C=C2\SC(=O)N(Cc3ccc(F)cc3)C2=O)c(Br)cc1OCC(=O)O
Output line: 38

Input line: // same read-out, input: O=C(CCN1C(=O)C(=Cc2ccc(Cl)cc2)SC1=S)Nc1cccc(C(=O)O)c1
Output line: 39

Input line: // same read-out, input: O=C(CN1C(=O)/C(=C/c2ccccc2F)SC1=S)Nc1cccc(C(=O)O)c1
Output line: 71

Input line: // same read-out, input: COc1cccc(/C=C2\SC(=S)N(CC(=O)O)C2=O)c1OC
Output line: 100

Input line: // same read-out, input: CC(C)(C)c1ccc(/C=C2\SC(=S)N(CCC(=O)O)C2=O)cc1 [BG295]
Output line: 114

Input line: // same read-out, input: COc1ccccc1C=C1SC(=S)N(C(Cc2ccccc2)C(=O)O)C1=O (racemic)
Output line: 46

Input line: // same read-out, input: O=C(O)C(Cc1ccccc1)N1C(=O)C(=CC=Cc2ccccc2)SC1=S (stereo not drawn)
Output line: 33

Input line: // same read-out, input: CN1C(=O)S/C(=C\c2ccc(-c3ccc(C(=O)O)c(Cl)c3)o2)C1=O
Output line: 82

Input line: // same read-out, input: CCc1ccc(C=C2SC(=S)N(CCC(=O)Nc3ccccc3C(=O)O)C2=O)cc1
Output line: 60

Input line: // same read-out, input: O=C(CN1C(=O)/C(=C/c2ccccc2F)SC1=S)Nc1ccccc1C(=O)O
Output line: 50

Input line: // same read-out, input: O=C(O)c1ccccc1/C=C1\SC(=S)N(c2cccc(C(F)(F)F)c2)C1=O
Output line: 47

Input line: // same read-out, input: CC(C(=O)O)N1C(=O)C(=Cc2ccc(Cl)cc2Cl)SC1=S (stereo not drawn)
Output line: 77

Input line: // same read-out, input: Cc1cccc(/C=C2\SC(=S)N(CN3CCCCC3)C2=O)c1
Output line: 49

Input line: // same read-out, input: Cc1ccc(N2C(=O)/C(=C/c3ccccc3C(=O)O)SC2=S)c(C)c1
Output line: 50

Input line: // same read-out, input: O=C(O)CCN1C(=O)C(=Cc2ccc(-c3ccccc3[N+](=O)[O-])o2)SC1=S
Output line: 56

Input line: // same read-out, input: O=C(CN1C(=O)C(=Cc2ccccc2Cl)SC1=S)Nc1ccc(C(=O)O)cc1
Output line: 58

Input line: // same read-out, input: O=C(O)C(Cc1ccccc1)N1C(=O)C(=Cc2ccccc2Cl)SC1=S (racemic)
Output line: 44

Input line: // same read-out, input: O=C(CCN1C(=O)C(=Cc2ccc(Cl)cc2)SC1=S)Nc1ccccc1C(=O)O
Output line: 31

Input line: // same read-out, input: O=C1NC(=S)SC1=Cc1ccccc1OS(=O)(=O)c1ccc([N+](=O)[O-])cc1
Output line: 40

Input line: // same read-out, input: CCOc1cc(/C=C2\SC(=S)NC2=O)ccc1OS(=O)(=O)c1ccccc1[N+](=O)[O-]
Output line: 29

Input line: // same read-out, input: COc1ccccc1/C=C1\SC(=O)N(CC(=O)O)C1=O
Output line: 100

Input line: // same read-out, input: CC(=C1SC(=S)NC1=O)c1ccc(C)cc1
Output line: 67

Input line: // same read-out, input: CC(C)c1ccc(/C=C2\SC(=S)N(CC(=O)O)C2=O)cc1
Output line: 93

Input line: // same read-out, input: O=C(CCCN1C(=O)/C(=C/c2ccc(F)cc2)SC1=S)Nc1cccc(C(=O)O)c1
Output line: 56

Input line: // same read-out, input: O=C(CCN1C(=O)/C(=C/c2cccc(Br)c2)SC1=S)Nc1ccccc1C(=O)O
Output line: 68
